Every entry's value here was drawn from patent US20100069346A1.

Experiment: Metabolic stability in liver microsomes (HLM)
Format: in vitro ADME
Conditions: pH 7.4; human liver microsomes
Description: Stability against human microsomal metabolism in vitro is indicative of stability towards metabolism in vivo. The metabolic stability of compounds according to formula I can be determined as described below: […] The rate of biotransformation can be measured as either metabolite(s) formation or the rate of disappearance of the parent compound. […]
measuredParameter: microsomal CLint at 1 μM (µL/min/mg)
One number for each entry, in µL/min/mg.

Prompt line: Request the reported microsomal CLint at 1 μM associated with CN(C[C@@H](CCN1CC(N2CCOC[C@H]2CCO)C1)c1ccc(F)cc1)C(=O)c1cc(Br)cc(C(F)(F)F)c1 [Ex 5]
Response line: 40.7
